Each recorded value in this set is attributed to patent US20210380703A1.

- SYSTEM_UNDER_TEST: T1, biotinylated goat anti-human kappa light chain
- T1 construct: positive control of the ELISA
- PROTOCOL_SUMMARY: ELISA, positive control; note: test concentration or dose not given here
Here, each record is paired with measured optical density data.
Only the number, expressed in OD, is required.

Check out these entries, answers already filled in.
1. 368_B12 (antibody, V domains shown, Group II) VH: EVQLLESGGGLVQPGGSLRLSCAASGFTFDSYGMHWVRQAPGKGLEWVSGINYNSGYTSYADSVKGRFTISRDNSKNTLYLQMNSLRAEDTAVYYCARAATWHDTHLDYWGQGTLVTVSS VL: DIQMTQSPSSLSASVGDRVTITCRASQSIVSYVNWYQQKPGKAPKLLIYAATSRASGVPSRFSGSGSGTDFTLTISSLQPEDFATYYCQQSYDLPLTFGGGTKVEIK
3.49
2. 374_F03 (antibody, V domains shown, Group I) VH: EVQLLESGGGLVQPGGSLRLSCAASGFTFSSYGMNWVRQAPGKGLEWVASINYNGGYTSYADSVKGRFTISRDNSKNTLYLQMNSLRAEDTAVYYCARAANWHDTHLDYWGQGTLVTVSS VL: DIQMTQSPSSLSASVGDRVTITCRASQSIISYVNWYQQKPGKAPKLVIYAATSRASGVPSRFSGSGSGTDFTLTISSLQPEDFATYYCQQSYDTPLTFGGGTKVEIK
3.23
3. 367_A06 (antibody, V domains shown, Group III) VH: EVQLLESGGGLVQPGGSLRLSCAASGFTFDSYGMNWVRQAPGKGLEWVASINYNGGYKGYADSVKGRFTISRDNSKNTLYLQMNSLRAEDTAVYYCARGANWHDTHLDYWGQGTLVTVSS VL: DIQMTQSPSSLSASVGDRVTITCRASQSILSYVNWYQQKPGKAPKLLIYAATSRHSGVPSRFSGSGSGTDFTLTISSLQPEDFATYYCQQSYDTPLTFGGGTKVEIK
3.36
4. 371_H02 (antibody, V domains shown, Group I) VH: EVQLLESGGGLVQPGGSLRLSCAASGFTFDDYSMNWVRQAPGKGLEWVSGINYNGGYKSYADSVKGRFTISRDNSKNTLYLQMNSLRAEDTAVYYCARAANWHDTHLDYWGQGTLVTVSS VL: DIQMTQSPSSLSASVGDRVTITCRASQSIISYLNWYQQKPGKAPKLVIYAATSLASGVPSRFSGSGSGTDFTLTISSLQPEDFATYYCQQSYENPLTFGGGTKVEIK
3.62

# evaluate next
IN: Returns the measured optical density for the input binder. Input: 365_B08 (antibody, V domains shown, Group II) VH: EVQLLESGGGLVQPGGSLRLSCAASGFTFDSYGMNWVRQAPGKGLEWVSNINYNSGYKGYADSVKGRFTISRDNSKNTLYLQMNSLRAEDTAVYYCARAATWHDTHLDYWGQGTLVTVSS VL: DIQMTQSPSSLSASVGDRVTITCRASQSIVTYLNWYQQKPGKAPKLLIYAATSRASGVPSRFSGSGSGTDFTLTISSLQPEDFATYYCQQSYSSPLTFGGGTKVEIK
OUT: 3.04
